// data source = ChEMBL document CHEMBL2086238

Tested On: CYP1A2 (Homo sapiens, UniProt P05177)
Sequence (P05177 whole entry): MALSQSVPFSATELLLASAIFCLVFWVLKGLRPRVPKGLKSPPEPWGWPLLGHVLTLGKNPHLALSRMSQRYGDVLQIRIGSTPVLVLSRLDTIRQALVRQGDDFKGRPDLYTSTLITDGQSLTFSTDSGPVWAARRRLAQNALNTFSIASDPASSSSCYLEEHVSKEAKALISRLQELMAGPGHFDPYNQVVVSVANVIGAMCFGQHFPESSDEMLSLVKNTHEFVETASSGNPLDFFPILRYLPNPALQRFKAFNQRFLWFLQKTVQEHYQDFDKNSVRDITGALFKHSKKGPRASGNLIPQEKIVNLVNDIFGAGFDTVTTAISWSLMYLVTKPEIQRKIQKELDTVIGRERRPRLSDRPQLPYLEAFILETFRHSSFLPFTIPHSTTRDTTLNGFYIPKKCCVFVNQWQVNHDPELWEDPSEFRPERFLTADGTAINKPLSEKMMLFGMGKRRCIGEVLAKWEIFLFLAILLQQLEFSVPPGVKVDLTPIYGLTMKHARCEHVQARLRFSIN
Test Details: Inhibition of CYP1A2 at 10 uM
Assay type: ADME
Measurement Type: inhibition at 10 µM

Before answering, review these 5 worked examples.
{"columns": ["Smiles Text", "inhibition at 10 µM"],
 "data": [
  ["CCS(=O)(=O)N1CCN(Cc2cn3cc(-c4cnc(N)nc4)nc(N4CCOCC4)c3n2)CC1", "< 30%"],
  ["CS(=O)(=O)N1CCN(Cc2cn3cc(-c4cnc(N)nc4C(F)(F)F)nc(N4CCOCC4)c3n2)CC1", "< 30%"],
  ["CS(=O)(=O)N1CCN(Cc2nc3c(N4CCOCC4)nc(-c4cnc(N)nc4)cn3c2Br)CC1", "< 30%"],
  ["CS(=O)(=O)N1CCN(Cc2cn3c(Cl)c(-c4cnc(N)nc4)nc(N4CCOCC4)c3n2)CC1", "< 30%"],
  ["CS(=O)(=O)N1CCN(Cc2cn3cc(-c4cnc(N)nc4)nc(N4CCOCC4)c3n2)CC1", "< 30%"]
]}

From here, focus on the item given below.
# lookup: inhibition at 10 µM of "Cc1c(CN2CCN(S(C)(=O)=O)CC2)nc2c(N3CCOCC3)nc(-c3cnc(N)nc3)cn12"
< 30%
